Just for reference, the METLIN SMRT retention time set (Domingo-Almenara et al. 2019) is where these values come from.

assay: gradient 5% acetonitrile 3 min, to 50% in 2 min, to 85% in 15 min, held 3 min, 100 µL/min; details: column: Zorbax Extend-C18 2.1 x 50 mm; eluents: water / acetonitrile, 0.1% formic acid
Assay metric: RP-LC retention time (s)
Answers are plain numbers, in s.

Illustrative cases are given below, each with its answer.
| Molecule | RP-LC retention time (s) |
| --- | --- |
| Nc1cc(C2CCN(C(=O)c3cccc(Br)c3)CC2)no1 | 709 |
| COc1ccc(N2C=C(C#N)S(=O)(=O)c3ccc(Cl)cc32)cc1OC | 916 |
| Cc1nnc2n1CCC(NC(=O)c1ccoc1)CC2 (stereo not drawn) | 532 |
| CC(C)CN1CCN(S(=O)(=O)c2ccc(-c3nnc(C(C)C)o3)o2)CC1 | 652 |
| COc1cc(NC(=O)Cn2nc(N3CCCC3)c3ccccc3c2=O)cc(OC)c1 | 918 |

Parameters: items (list). Returns: RP-LC retention time for each item.
1. COc1cc2nc(C(=O)N3CCCCC3)cc(Nc3cccc(C(F)(F)F)c3)c2cc1OC
2. COc1ccccc1CNC(=O)C1CCN(S(=O)(=O)c2ccc3[nH]c(=O)ccc3c2)CC1
3. CCOc1ccc(-c2noc(CN3C(=O)COc4ccc(Cl)cc43)n2)cc1
4. CNC(=O)CCc1nc2ccccc2n(CC(=O)NCc2ccc(C)cc2)c1=O

1. 752
2. 714
3. 1130
4. 695

For every item below, please supply its RP-LC retention time.
1. Nc1nc2ccc(Cl)cc2n2c(-c3ccccc3)nnc12
2. CCCS(=O)(=O)c1nc2ccc(NS(=O)(=O)Cc3ccc(Cl)cc3)cc2s1
3. CN(C)C(=O)c1cc2cnc(Nc3ccc(N4CCNCC4)cn3)nc2n1C1CCCC1
4. CCCCn1c(CN2CCOCC2)nc2cc(NC(=O)c3cccs3)ccc21
5. CCOC(=O)c1ccc(NC(=O)CSc2ccc(N3CCCC(C(=O)NC4CC4)C3)nn2)cc1 (stereo not drawn)
6. CCN1CCC(N(Cc2cccs2)C(=O)Nc2cccc(Br)c2)CC1
7. Cc1ccc(NC(=O)NC2CCN(c3ccc(F)c(C)c3)C2=O)c(C)c1 (stereo not drawn)
8. COc1ccc(-c2nc(Cc3noc(-c4ccccc4F)n3)c(C)o2)cc1

1: 867; 2: 953; 3: 630; 4: 678; 5: 678; 6: 693; 7: 874; 8: 1080

====

assay: gradient 5% acetonitrile 3 min, to 50% in 2 min, to 85% in 15 min, held 3 min, 100 µL/min; conditions: column: Zorbax Extend-C18 2.1 x 50 mm; eluents: water / acetonitrile, 0.1% formic acid
Assay metric: RP-LC retention time (s)
One number for each entry, in s.

| Molecule | Measure unit | Recorded measurement |
| --- | --- | --- |
| CCCCNC(=O)C1CCCN(C(=O)Nc2ccc(NC(=O)NC3CCCC3)cc2)C1 (centres undefined) | s | 728 |
| CCN1CCC2(CC1)CC(c1nnc(C)o1)N(CCc1ccccc1)C2 (centres undefined) | s | 550 |

Batch request: RP-LC retention time per item, same order as input.
1. O=C(Nc1ccc(-c2nc(-c3ccc(Cl)cc3)no2)cc1)c1cccs1
2. COc1cccc(C(O)CN2CCN(c3ccccc3C)CC2)c1 (centres undefined)
3. Cc1cnc(C(=O)N2CC[C@H](n3c(=O)n(C)c4cccnc43)C2)cn1
4. COc1ccc(NC(=O)N2c3ccccc3CC2c2nc(C(C)C)no2)cc1OC (centres undefined)
5. O=C(NC1(c2nc(-c3ccncc3)no2)CCCCC1)C1CCCC1
6. COc1cccc(CNC(=O)C2(C)CCN(C(=O)NCC3CCCO3)CC2)c1 (centres undefined)

1: 1240; 2: 691; 3: 647; 4: 935; 5: 861; 6: 668
